assay: Acute toxicity study in mice; assay type: in vivo; settings: male, KM, mouse, in vivo; oral, mice; read-out: LD50 (50% lethal dose)
reported metric: LD50 at 7 days

Query :: Recorded LD50 at 7 days for O=c1c2cc(Cl)ccc2[se]n1-c1ccccn1 , please?
Result :: > 5000 mg/kg

----------
Each item that follows carries a reported TA98 +S9.
test system: TA98; assay: Ames test, strain TA98; type: cell-based; settings: 5 μg/dish

Query :: Recorded TA98 +S9 for O=c1c2cc(F)ccc2[se]n1-c1cccnc1 [IMM-128] , please?
Result :: 46.00 ± 3.00

Query :: Recorded TA98 +S9 for O=c1c2cc(Cl)ccc2[se]n1-c1ccccn1 [IMM-004] , please?
Result :: 48.33 ± 11.95

Query :: Recorded TA98 +S9 for O=c1c2ccc(Cl)cc2[se]n1-c1ccncc1 [IMM-313] , please?
Result :: 50.33 ± 5.79

More entries:
Query :: Recorded TA98 +S9 for C/C(=N\O)c1ccc(-n2[se]c3ccccc3c2=O)cc1 [IMM-065] , please?
Result :: 61.67 ± 11.15

Query :: Recorded TA98 +S9 for O=c1c2cc(F)ccc2[se]n1-c1ccccn1 [IMM-127] , please?
Result :: 53.00 ± 5.72
